Value source: PubChem BioAssay (Tox21)

# assay protocol: qHTS assay to test for compound auto fluorescence at 460 nm (blue) in HEK293 cells (AID 720678); note: % is set by controls: 0 for no effect and ±100 for the full control effect
# measurement parameters: blue autofluorescence 405/460 nm; series mostly up to 46 µM
Active and inactive are the calls of the source. Calls come from the whole dose curve; as a rule, active = well fitted curve in the direction sought with a large enough effect in the repeat runs; inconclusive = weak or mixed curves; inactive = flat fitted curve, though single readings scatter.
Give one outcome, nothing more. List: 1 = active, -1 = inactive

Worked cases, answers included:
O=C1CC[C@@H](C(=O)N[C@H]2C[C@@H]2c2ccccc2)N1 | -1
COC1=C(OC)C(=O)C(C/C=C(\C)CC/C=C(\C)CC/C=C(\C)CC/C=C(\C)CC/C=C(\C)CC/C=C(\C)CC/C=C(\C)CC/C=C(\C)CC/C=C(\C)CCC=C(C)C)=C(C)C1=O | -1
O=P(O)(O)CP(=O)(O)O | -1

Record request — test call for CC[C@H]1OC(=O)C[C@@H](O)[C@H](C)[C@@H](O[C@@H]2O[C@H](C)[C@@H](O[C@H]3C[C@@](C)(O)[C@@H](O)[C@H](C)O3)[C@H](N(C)C)[C@H]2O)[C@@H](CC=O)C[C@@H](C)C(=O)/C=C/C(C)=C/[C@@H]1CO[C@@H]1O[C@H](C)[C@@H](O)[C@@H](OC)[C@H]1OC
-1

Record request — test call for CCN(CC)C(=O)c1cccnc1
-1

Record request — test call for NCc1cccc(C2CCN(C(=O)c3ccc(C#Cc4ccccc4F)o3)CC2)c1
-1

Record request — test call for c1ccc2occc2c1
-1

---

# system name: Nuclear receptor subfamily 1 group I member 2 (Rattus norvegicus) (UniProt Q9R1A7)
# Sequence (Q9R1A7 whole entry, looked up): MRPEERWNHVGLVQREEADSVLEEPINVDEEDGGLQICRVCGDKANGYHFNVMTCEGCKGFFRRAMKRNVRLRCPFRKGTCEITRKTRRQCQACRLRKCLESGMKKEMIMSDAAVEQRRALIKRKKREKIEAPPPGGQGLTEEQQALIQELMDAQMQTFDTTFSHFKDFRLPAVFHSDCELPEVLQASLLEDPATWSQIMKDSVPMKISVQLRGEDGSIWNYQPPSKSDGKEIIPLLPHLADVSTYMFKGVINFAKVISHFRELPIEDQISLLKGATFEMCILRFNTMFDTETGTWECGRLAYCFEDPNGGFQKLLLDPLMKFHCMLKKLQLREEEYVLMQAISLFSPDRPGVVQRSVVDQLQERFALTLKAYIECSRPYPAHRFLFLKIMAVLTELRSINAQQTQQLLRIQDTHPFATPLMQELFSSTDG
# assay protocol: Rat pregnane X receptor (rPXR) activation by small molecules, qHTS assay (AID 1346983); note: % is set by controls: 0 for no effect and ±100 for the full control effect; nearly all actives have a fitted effect of over 20% in size
# measurement parameters: rPXR luciferase reporter cells, One-Glo luminescence, 24 h; active compounds read high
Inconclusive results are not listed.
For each entry below, report its max activation value.
Answers are plain numbers, in %.

CC[N+](CC)(CC)CCC(O)(c1ccccc1)C1CCCCC1 (stereo not drawn) | -2.27
O.O.O.O.O.O.O.O=S(=O)([O-])[O-].[Co+2] | -2.66
CC(CNC(=O)c1cccnc1)NC(=O)c1cccnc1 (stereo not drawn) | -2.47
CN(C)CCOc1ccc(/C(=C(/CCCl)c2ccccc2)c2ccccc2)cc1 | -3.02
CN(Cc1ccccc1)Cc1ccccc1 | -2.9
O=C1[O][Bi][O]c2ccccc21 | -4.48
COc1c(O)cc2c(c1O)[C@@H]1O[C@H](CO)[C@@H](O)[C@H](O)[C@H]1OC2=O | -0.0644

Switching to the query record.
What the record says about CN[C@H](CC(C)C)C(=O)N[C@H]1C(=O)N[C@@H](CC(N)=O)C(=O)N[C@H]2C(=O)N[C@H]3C(=O)N[C@H](C(=O)N[C@@H](C(=O)O)c4cc(O)cc(O)c4-c4cc3ccc4O)[C@H](O)c3ccc(c(Cl)c3)Oc3cc2cc(c3O[C@@H]2O[C@H](CO)[C@@H](O)[C@H](O)[C@H]2O[C@H]2C[C@](C)(N)C(O)[C@H](C)O2)Oc2ccc(cc2Cl)[C@H]1O (stereo partly drawn) : max activation is -3.51

---

# system name: Aromatase (Homo sapiens) (UniProt P11511)
# Sequence (P11511 whole entry, looked up): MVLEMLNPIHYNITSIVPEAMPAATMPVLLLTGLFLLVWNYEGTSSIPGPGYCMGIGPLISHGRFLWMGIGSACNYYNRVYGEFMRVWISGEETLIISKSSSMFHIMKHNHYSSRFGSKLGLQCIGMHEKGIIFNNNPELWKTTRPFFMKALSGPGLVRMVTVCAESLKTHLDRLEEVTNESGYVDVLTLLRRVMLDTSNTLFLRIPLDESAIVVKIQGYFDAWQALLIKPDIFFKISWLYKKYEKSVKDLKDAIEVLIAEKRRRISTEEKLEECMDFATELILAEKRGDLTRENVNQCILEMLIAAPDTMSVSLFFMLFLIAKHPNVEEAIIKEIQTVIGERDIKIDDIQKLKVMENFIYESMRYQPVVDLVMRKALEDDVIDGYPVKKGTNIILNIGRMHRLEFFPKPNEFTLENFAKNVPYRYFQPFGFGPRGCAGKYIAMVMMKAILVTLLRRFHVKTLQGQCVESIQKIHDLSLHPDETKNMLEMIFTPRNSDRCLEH
# assay protocol: qHTS assay to identify aromatase inhibitors (AID 743083); note: nearly all actives have a fitted effect of over 55% in size; note: potency is the fitted concentration of half-maximal effect
# measurement parameters: MCF-7 aro ERE, testosterone-driven ERE luciferase, 24 h; series mostly up to 70.3 µM
Results filed as inconclusive are left out. Activity calls are given as the source filed them. Calls come from the whole dose curve; as a rule, active = well fitted inhibition curve with a large enough effect in the repeat runs; inconclusive = weak or mixed curves; inactive = no such curve, though single readings can be large or run the other way.
outcome measure: Potency

O=C1c2c(O)cccc2[C@H]([C@@H]2O[C@H](CO)[C@@H](O)[C@H](O)[C@H]2O)c2cc(CO)cc(O)c21 | inactive
CC(Cc1ccc(O)c(O)c1)C(C)Cc1ccc(O)c(O)c1 (stereo not given) | inactive
NC(=S)NS(=O)(=O)c1ccc(N)cc1 | inactive
CCCCCCCCCCCC[n+]1ccc2ccccc2c1 | 10.6 µM (active)

Switching to the query record.
What the record says about C=C1C(=C/C=C2\CCC[C@]3(C)[C@@H]([C@H](C)CCCC(C)C)CC[C@@H]23)C[C@@H](O)C[C@@H]1O : Potency is inactive
